Where do these numbers come from? They come from ChEMBL document CHEMBL1201862.

- System: OVCAR-4
- measurement description: NCI tumour cell line growth inhibition, 48 h
The source made the active and inactive calls. Rule as the data show it: active = GI50 up to about 1.1 µM and inactive = higher.
# GI50 per record follows

- molecule: "Cc1cn(CCCCCOC(=O)NC(CCCNC(N)=O)C(=O)O)c(=O)[nH]c1=O (stereo unspecified)"
  measured target: "OVCAR-4"
  GI50: "> 100 µM (inactive)"
- molecule: "O=C(NCCN1CCOCC1)c1ccc2cc(C(=O)N3CC(CCl)c4ccc([N+](=O)[O-])cc43)[nH]c2c1 (stereo unspecified)"
  measured target: "OVCAR-4"
  GI50: "8.77 µM (inactive)"
- molecule: "CC(C)(C)OC(=O)N/N=C(/N)Cc1ccccc1"
  measured target: "OVCAR-4"
  GI50: "> 100 µM (inactive)"
- molecule: "OCCCc1cc(O)c2c(c1)C(CO)C(c1ccc(O)c(O)c1)O2 (stereo unspecified)"
  measured target: "OVCAR-4"
  GI50: "> 10 µM (inactive)"
- molecule: "S=C1c2ccccc2N=C(NC2CCCC2)C2CSCN12 (stereo unspecified)"
  measured target: "OVCAR-4"
  GI50: "> 100 µM (inactive)"
- molecule: "O=Cc1cc2c(cc1-c1c(C=O)ccc3c1OCO3)OCO2"
  measured target: "OVCAR-4"
  GI50: "> 10 µM (inactive)"
- molecule: "OCCCc1ccc2c(c1)[C@H](CO)[C@@H](c1ccc(O)cc1)O2"
  measured target: "OVCAR-4"
  GI50: "16.8 µM (inactive)"
- molecule: "CS(=O)(=O)OCCn1c(=O)n(CCOS(C)(=O)=O)c(=O)n(CCOS(C)(=O)=O)c1=O"
  measured target: "OVCAR-4"
  GI50: "> 100 µM (inactive)"
- molecule: "O=C(N/N=C/c1ccccc1O)c1cccc([N+](=O)[O-])c1"
  measured target: "OVCAR-4"
  GI50: "50.5 µM (inactive)"
- molecule: "ClCc1nc2cc(Cl)ccc2o1"
  measured target: "OVCAR-4"
  GI50: "1.71 µM (inactive)"
- molecule: "CCOC(=O)CCC1(C(=O)OCC)CCCC1=O (stereo unspecified)"
  measured target: "OVCAR-4"
  GI50: "> 100 µM (inactive)"

###

# GI50 per record follows
- Test system: HOP-92
- measurement description: NCI tumour cell line growth inhibition, 48 h
Activity calls are given as the source filed them. No stated cut-off is given here; in the data, active = GI50 up to about 1.1 µM and inactive = higher.
assay readout: GI50

- molecule: "CC1(O)CCn2c(=O)c3cc4ccccc4cc3c(=O)n2C1O (centres undefined)"
  reported: "79.3 µM (inactive)"
- molecule: "CC(=O)O[C@H]1C(=O)[C@@]2(C)C(C(OC(=O)c3ccccc3)[C@]3(O)CC(OC(=O)C(O)C(NC(=O)c4ccc(C(F)(F)F)cc4)c4ccccc4)C(C)=C1C3(C)C)[C@]1(OC(C)=O)CO[C@@H]1C[C@@H]2O (some centres undefined)"
  reported: "2.13 µM (inactive)"
- molecule: "C[C@H]1C(=O)O[C@@H]2CCN3CC=C(COC(=O)[C@](C)(O)[C@@]1(C)O)[C@H]23"
  reported: "> 100 µM (inactive)"
- molecule: "COC(=O)C1=C(c2ccc(OC)c(OC)c2)OC(c2ccc(OC)c(OC)c2)C1 (centres undefined)"
  reported: "13.8 µM (inactive)"
- molecule: "Cc1nc(C(N)=O)c(N)n1CCN1CCN(C(=O)CCCCCCCCCCNC2NC=Nc3[nH]cnc32)CC1 (centres undefined)"
  reported: "16.3 µM (inactive)"
- molecule: "Cc1cc(S(N)(=O)=O)c(S/C(=N\\Nc2ccc([N+](=O)[O-])cc2)c2ccc(Cl)cc2)cc1Cl"
  reported: "2.26 µM (inactive)"
- molecule: "Cn1c(=O)c2ccccc2[n+]2c(-c3cccc([N+](=O)[O-])c3)csc12"
  reported: "> 100 µM (inactive)"
- molecule: "CN1CNc2nc(N)n(C)c(=O)c2C1"
  reported: "> 10 µM (inactive)"
- molecule: "C=CCc1cc(-c2n[nH]c(=S)[nH]2)ccc1N/N=N/c1ccc(C(=O)O)cc1"
  reported: "> 100 µM (inactive)"

###

- Tested on: OVCAR-8
- measurement description: NCI tumour cell line growth inhibition, 48 h
Calls of active or inactive are those of the source. No stated cut-off is given here; in the data, active = GI50 up to about 1.1 µM and inactive = higher.

- compound: "C/C=C/c1cc2c(cc1O)CC[C@@H]1[C@@H]2CC[C@]2(C)[C@@H](O)CC[C@@H]12"
  GI50: "0.182 µM (active)"
- compound: "O=C(Nc1ccc(Nc2ccc3c(c2)C(=O)c2ccccc2C3=O)c2c1C(=O)c1ccccc1C2=O)c1ccccc1"
  GI50: "> 86.5 µM (inactive)"
- compound: "Cc1ccc2c(c1)C(C(=O)N[C@@H]1C(=O)N3[C@@H]1SC(C)(C)[C@@H]3C(=O)O)OCCC2 (some centres undefined)"
  GI50: "> 100 µM (inactive)"
- compound: "Cc1cc2c(cc1-c1cc3c(cc1C)C(C(C)C)=C(O)C(=O)/C3=C\\Nc1cccc3c(N)cccc13)/C(=C/Nc1cccc3c(N)cccc13)C(=O)C(O)=C2C(C)C"
  GI50: "> 100 µM (inactive)"
- compound: "Cc1c(N2CCN(C)CC2)nc2ccc(Cl)cc2c1-c1ccccc1"
  GI50: "16.6 µM (inactive)"
- compound: "CC(=O)CC1(C)OC(N)=C(C#N)C1(C#N)C#N (centres undefined)"
  GI50: "> 100 µM (inactive)"
- compound: "OCCCc1cc(O)c2c(c1)C(CO)C(c1ccc(O)c(O)c1)O2 (centres undefined)"
  GI50: "> 100 µM (inactive)"
- compound: "CN1N=C(Nc2ccccc2)Sc2c1cnn(-c1ccccc1)c2=O"
  GI50: "> 100 µM (inactive)"
- compound: "O=C(Nc1cccc(C(F)(F)F)c1)O/N=C(/Cl)CCl"
  GI50: "> 100 µM (inactive)"

###

- Test system: ACHN
- measurement description: NCI tumour cell line growth inhibition, 48 h
Calls of active or inactive are those of the source. No stated cut-off is given here; in the data, active = GI50 up to about 1.1 µM and inactive = higher.

- molecule: "O=c1cc(-c2ccccc2)oc2cc(O)cc(O)c12"
  GI50: "15.2 µM (inactive)"
- molecule: "O=c1[nH]c2cc3[nH]c4ncccc4c(=O)c3cc2[nH]1"
  GI50: "> 10 µM (inactive)"
- molecule: "CCOC(=O)c1ccc(NCc2ccc3oc(=O)c(-c4ccccc4)nc3c2)cc1"
  GI50: "26.6 µM (inactive)"
- molecule: "O=C(O)Cc1cc(=O)oc2cc(O)c(Cl)cc12"
  GI50: "> 100 µM (inactive)"
- molecule: "O=[N+]([O-])/C=C/c1ccc(Cl)cc1Cl"
  GI50: "16.8 µM (inactive)"
- molecule: "CCC12CCCN(Cc3ccccc3)C1c1c(n(C)c3ccccc13)C(C(=O)OC)C2 (stereo unspecified)"
  GI50: "182 µM (inactive)"

###

- System: SK-MEL-28
- measurement description: NCI tumour cell line growth inhibition, 48 h
Where a name gives a salt, the structure may show the parent alone. The source made the active and inactive calls. No stated cut-off is given here; in the data, active = GI50 up to about 1.1 µM and inactive = higher.
assay readout: GI50

- compound: "O=[N+]([O-])c1cc(Cl)ccc1Sc1ccccc1"
  assay readout: "GI50"
  reported: "> 100 µM (inactive)"
- compound: "NC(=S)NS(=O)(=O)c1ccc(Cl)cc1Cl"
  assay readout: "GI50"
  reported: "> 100 µM (inactive)"
- compound: "C#Cc1cccc(Nc2ncnc3cc(OCCOC)c(OCCOC)cc23)c1 [ERLOTINIB HYDROCHLORIDE]"
  assay readout: "GI50"
  reported: "> 100 µM (inactive)"
- compound: "COC(=O)C12CC3CC(C1)CC(C(=O)OC)(C3)C2"
  assay readout: "GI50"
  reported: "> 100 µM (inactive)"
- compound: "COc1cc(CN2CCCCC2)cc2cc(C(=O)O)c(=O)oc12"
  assay readout: "GI50"
  reported: "> 100 µM (inactive)"
- compound: "COc1ccc2[nH]c3nnc(N)c-3nc2c1"
  assay readout: "GI50"
  reported: "11.2 µM (inactive)"

###

- Tested on: HL-60
- measurement description: NCI tumour cell line growth inhibition, 48 h
Calls of active or inactive are those of the source. No stated cut-off is given here; in the data, active = GI50 up to about 1.1 µM and inactive = higher. Square brackets hold non-standard residues; d marks the D form. Peptide text beside a SMILES is read from it. Phe(4-Cl) = N[CH](Cc1ccc(Cl)cc1)C(=O)O; 2Nal = N[CH](Cc1ccc2ccccc2c1)C(=O)O; 3Pal = N[CH](Cc1cccnc1)C(=O)O
# GI50 per record follows

- compound: "CC(=O)C(/N=N\\C1CCC(S(=O)(=O)NB2N=CS2)CC1)C(=O)Nc1ccccc1C (centres undefined)"
  GI50: "> 100 µM (inactive)"
- compound: "Cc1cn(CCCCCOC(=O)NC(CCCNC(N)=O)C(=O)O)c(=O)[nH]c1=O (centres undefined)"
  GI50: "> 100 µM (inactive)"
- compound: "Cc1c(N2CCN(C)CC2)nc2ccc(Cl)cc2c1-c1ccccc1"
  GI50: "12.7 µM (inactive)"
- compound: "CSc1ccc2c(cc1=O)C(NC(=O)c1ccc(C#N)cc1)CCc1cc(O)c(O)c(O)c1-2 (centres undefined)"
  GI50: "20.1 µM (inactive)"
- compound: "COc1ccc(OC)c(CC2CCc3nc(N)nc(N)c3C2)c1 (centres undefined)"
  GI50: "3.58 µM (inactive)"
- compound: "C[C@H]1CC[C@H](NC(=O)N(CCCl)N=O)CC1"
  GI50: "14.4 µM (inactive)"
- compound: "N#Cc1ccc(/C=C2\\Cc3ccccc3C2=O)cc1"
  GI50: "67.6 µM (inactive)"
- compound: "CC(=O)NC(Cc1ccc2ccccc2c1)C(=O)NC(Cc1ccc(Cl)cc1)C(=O)NC(Cc1cccnc1)C(=O)NC(CO)C(=O)NC(Cc1ccc(O)cc1)C(=O)NC(CCCN=C(N)N)C(=O)NC(CC(C)C)C(=O)NC(CCCN=C(N)N)C(=O)N1CCCC1C(=O)NC(C)C(N)=O (centres undefined) (Ac-[2Nal][Phe(4-Cl)][3Pal]SYRLRPA-NH2; configuration not given here)"
  GI50: "> 100 µM (inactive)"
- compound: "CC(=O)Oc1cc(C(F)(F)F)ccc1C(=O)OC1(C)OC(=O)c2ccc(C(F)(F)F)cc2O1 (centres undefined)"
  GI50: "> 100 µM (inactive)"
- compound: "N=c1oc2ccc([N+](=O)[O-])cc2cc1C(=O)NCc1ccccc1"
  GI50: "27.2 µM (inactive)"
- compound: "C1=CC2CCC1CN2CCC1CNc2ccccc21 (centres undefined)"
  GI50: "> 100 µM (inactive)"
- compound: "O=C(/C=C(\\O)C(=O)O)/C=C(\\O)c1ccccc1Cl"
  GI50: "> 100 µM (inactive)"
- compound: "O=C1c2ccccc2C(=O)c2c(OCCOCCO)cccc21"
  GI50: "> 100 µM (inactive)"
- compound: "COCn1cc(C2=C(C)C(=O)C(C)=C(C)C2=O)cn1"
  GI50: "4.6 µM (inactive)"
- compound: "COc1ccc(/C=C\\c2cc(OC)c(OC)c(OC)c2)cc1OCC(=O)O"
  GI50: "2.84 µM (inactive)"
- compound: "CC1=NN(c2nc(N)nc(C(C)Cl)n2)C(C)(C)C1 (centres undefined)"
  GI50: "> 100 µM (inactive)"
- compound: "Oc1cc(O)c2c(c1)O[C@H](c1cc(O)c(O)c(O)c1)[C@@H](O)C2"
  GI50: "22.2 µM (inactive)"
- compound: "COC(=O)C12CC3CC(C1)CC(C(=O)OC)(C3)C2"
  GI50: "55.8 µM (inactive)"
- compound: "COc1cc2c3c(c1Oc1nnnn1-c1ccccc1)-c1c(ccc4c1OCO4)C[C@H]3N(C)CC2"
  GI50: "15.1 µM (inactive)"
